TESTED_SYSTEM: T1, nuclear coactivator binding domain (NCBD) of CBP (residues 2059–2117) (mouse, UniProt P45481 2059-2117)
T1 sequence (looked up): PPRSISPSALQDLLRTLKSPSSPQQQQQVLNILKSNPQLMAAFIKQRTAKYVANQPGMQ
ASSAY: ITC
PROPERTY: Kd (µM)
Give bare numbers, in µM.

Form field: reported Kd of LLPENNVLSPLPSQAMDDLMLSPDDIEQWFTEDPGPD (domain or fragment, human, UniProt P04637 25-61, looked up) [p53(25–61)] 5.4
